- EXPERIMENTAL_PROTOCOL: Partition coefficient (logP)
- Type: physicochemical
- TEST_PARAMETERS: octanol/water
OUTCOME_MEASURE: logP

Here's what some known entries look like.
# MOLECULAR_STRING, RESULT_VALUE
data = [
    ("OCc1ccccc1NCc1cc2c(cc1O)CCCO2", 2.4),
    ("COc1ccc(O)c(C/C=C/c2ccccc2)c1", 4.4),
    ("CC(=O)c1ccc(SCc2cc3c(cc2O)CCCO3)cc1", 4.2),
    ("COc1ccc(O)c(CNc2ccc(C#N)s2)c1", 2.7),
    ("N#Cc1cc(NCc2cc3c(cc2O)CCO3)cs1", 2.8),
    ("N#Cc1ccc(NCc2cc3c(cc2O)CCCO3)cc1", 3.6),
    ("OCc1ccccc1SCc1cc2c(cc1O)CCCO2", 3.6),
    ("COc1ccc(O)c(CSc2ccccc2CO)c1", 2.9),
]

P. Oc1cc2c(cc1CNc1ccccc1)OCC2
Q. Oc1cc2c(cc1CNc1ccc(F)cc1F)OCCC2
Request: Between item P and item Q , which reported logP is smaller? Answer by quoting the chosen item's label.
Result: P
(P: 2.9, Q: 4.2)

====

- EXPERIMENTAL_PROTOCOL: Partition coefficient (logP)
- Assay type: physicochemical
- TEST_PARAMETERS: octanol/water
OUTCOME_MEASURE: logP

Here's what some known entries look like.
# MOLECULAR_STRING, logP
records = [
    ("COc1ccc(O)c(CNc2ccc(F)cc2F)c1", 3.5),
    ("COc1ccc(O)c(CCc2ccccc2)c1", 4.3),
    ("CC(=O)c1ccc(NCc2cc3c(cc2O)CCO3)cc1", 2.9),
    ("Oc1cc2c(cc1CNc1ccc(F)cc1F)OCC2", 3.6),
    ("CC(=O)c1ccc(NCc2cc3c(cc2O)CCCO3)cc1", 3.5),
]

A. Oc1cc2c(cc1CNc1ccccc1)OCCC2
B. OCc1ccccc1NCc1c(O)ccc2c1CCCO2
Request: Of A and B , whose reported logP is the larger number? Answer by quoting the chosen item's label.
Result: A

====

- EXPERIMENTAL_PROTOCOL: Partition coefficient (logP)
- Type: physicochemical
- TEST_PARAMETERS: octanol/water
OUTCOME_MEASURE: logP

# MOLECULAR_STRING, OUTCOME_MEASURE, RESULT_VALUE
data = [
    ("COc1ccc(O)c(CNc2ccccc2)c1", "logP", 2.8),
    ("CC(=O)c1ccc(NCc2c(O)ccc3c2CCCO3)cc1", "logP", 3.5),
    ("OCc1ccccc1/C=C/Cc1cc2c(cc1O)CCO2", "logP", 3.5),
]

====

- EXPERIMENTAL_PROTOCOL: Partition coefficient (logP)
- Type: physicochemical
- TEST_PARAMETERS: octanol/water
OUTCOME_MEASURE: logP

# MOLECULAR_STRING, logP
rows = [
    ("CCOC(=O)c1ccc(NCc2cc3c(cc2O)CCCO3)cc1", 4.6),
    ("COc1ccc(O)c(COc2ccccc2)c1", 3.3),
    ("CC(=O)c1ccc(/C=C/Cc2cc3c(cc2O)CCO3)cc1", 4),
]
